Recorded values, source paper PMC12647759.

tested_system: human PLCβ4 (Homo sapiens, UniProt Q15147)
Construct: expressing the full-length polypeptides of human PLCε, PLCβ4, PLCδ1 and PLCγ1 as FLAG fusions
Sequence (Q15147 whole entry, the tested form may be a part): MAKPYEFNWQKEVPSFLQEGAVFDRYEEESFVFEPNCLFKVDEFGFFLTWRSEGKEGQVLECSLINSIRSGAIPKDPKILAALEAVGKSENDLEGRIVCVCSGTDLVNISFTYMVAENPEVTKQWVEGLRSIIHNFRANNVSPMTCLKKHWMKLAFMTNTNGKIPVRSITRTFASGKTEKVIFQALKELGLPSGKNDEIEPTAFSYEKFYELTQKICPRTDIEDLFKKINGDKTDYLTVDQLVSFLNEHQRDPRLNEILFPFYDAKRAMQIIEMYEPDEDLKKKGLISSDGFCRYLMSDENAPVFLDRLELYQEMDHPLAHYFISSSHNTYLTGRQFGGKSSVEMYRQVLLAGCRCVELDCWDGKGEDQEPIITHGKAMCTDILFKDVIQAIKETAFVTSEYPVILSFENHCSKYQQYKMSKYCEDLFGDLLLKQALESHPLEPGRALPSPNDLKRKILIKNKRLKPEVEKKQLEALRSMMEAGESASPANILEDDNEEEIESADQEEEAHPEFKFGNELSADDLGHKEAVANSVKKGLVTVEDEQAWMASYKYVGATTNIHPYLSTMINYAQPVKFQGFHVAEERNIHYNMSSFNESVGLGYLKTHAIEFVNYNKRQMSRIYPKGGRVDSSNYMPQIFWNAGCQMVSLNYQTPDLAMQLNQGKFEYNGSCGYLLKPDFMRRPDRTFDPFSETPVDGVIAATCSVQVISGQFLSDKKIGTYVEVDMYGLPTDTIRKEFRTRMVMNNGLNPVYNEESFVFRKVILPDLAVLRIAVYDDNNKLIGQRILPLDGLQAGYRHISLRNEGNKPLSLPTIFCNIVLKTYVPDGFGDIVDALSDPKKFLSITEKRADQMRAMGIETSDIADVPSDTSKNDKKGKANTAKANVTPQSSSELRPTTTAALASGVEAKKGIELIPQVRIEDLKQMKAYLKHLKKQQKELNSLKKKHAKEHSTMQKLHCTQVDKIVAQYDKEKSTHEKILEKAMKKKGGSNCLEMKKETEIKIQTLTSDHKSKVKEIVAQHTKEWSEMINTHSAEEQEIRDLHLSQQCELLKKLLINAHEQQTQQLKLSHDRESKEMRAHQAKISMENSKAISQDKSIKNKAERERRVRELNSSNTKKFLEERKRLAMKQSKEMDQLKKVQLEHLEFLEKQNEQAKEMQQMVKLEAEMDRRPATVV
measurement_protocol: In vitro PLC assay using fluorogenic substrate Compound 1, PLCβ4
measurement_context: purified PLCβ4, fluorogenic substrate Compound 1; read-out: IC50, inhibition of PLCβ4 (hydrolysis of Compound 1)
pIC50: −log10 of the molar value.
property_measured: pIC50

INSERT INTO results (molecule, property_measured, value_observed) VALUES
  ('CCCCCCOc1ccc2c(c1)Oc1cc(OP(=O)(O)O[C@H]3[C@H](O)[C@@H](O)[C@H](OP(=O)(O)O)[C@@H](O)[C@H]3O)ccc1C21OC(=O)c2ccccc21 (some centres unmarked) [compound 1]', 'pIC50', 5.43),
  ('COc1ccc2c(c[n+](C)c3c4cc5c(cc4ccc23)OCO5)c1OC [chelerythrine]', 'pIC50', 4.40);

---

The molecules listed here are annotated with their IC50.
tested_system: human PLCε (Homo sapiens, UniProt Q9P212)
Construct: expressing the full-length polypeptides of human PLCε, PLCβ4, PLCδ1 and PLCγ1 as FLAG fusions
Sequence (Q9P212 whole entry, the tested form may be a part): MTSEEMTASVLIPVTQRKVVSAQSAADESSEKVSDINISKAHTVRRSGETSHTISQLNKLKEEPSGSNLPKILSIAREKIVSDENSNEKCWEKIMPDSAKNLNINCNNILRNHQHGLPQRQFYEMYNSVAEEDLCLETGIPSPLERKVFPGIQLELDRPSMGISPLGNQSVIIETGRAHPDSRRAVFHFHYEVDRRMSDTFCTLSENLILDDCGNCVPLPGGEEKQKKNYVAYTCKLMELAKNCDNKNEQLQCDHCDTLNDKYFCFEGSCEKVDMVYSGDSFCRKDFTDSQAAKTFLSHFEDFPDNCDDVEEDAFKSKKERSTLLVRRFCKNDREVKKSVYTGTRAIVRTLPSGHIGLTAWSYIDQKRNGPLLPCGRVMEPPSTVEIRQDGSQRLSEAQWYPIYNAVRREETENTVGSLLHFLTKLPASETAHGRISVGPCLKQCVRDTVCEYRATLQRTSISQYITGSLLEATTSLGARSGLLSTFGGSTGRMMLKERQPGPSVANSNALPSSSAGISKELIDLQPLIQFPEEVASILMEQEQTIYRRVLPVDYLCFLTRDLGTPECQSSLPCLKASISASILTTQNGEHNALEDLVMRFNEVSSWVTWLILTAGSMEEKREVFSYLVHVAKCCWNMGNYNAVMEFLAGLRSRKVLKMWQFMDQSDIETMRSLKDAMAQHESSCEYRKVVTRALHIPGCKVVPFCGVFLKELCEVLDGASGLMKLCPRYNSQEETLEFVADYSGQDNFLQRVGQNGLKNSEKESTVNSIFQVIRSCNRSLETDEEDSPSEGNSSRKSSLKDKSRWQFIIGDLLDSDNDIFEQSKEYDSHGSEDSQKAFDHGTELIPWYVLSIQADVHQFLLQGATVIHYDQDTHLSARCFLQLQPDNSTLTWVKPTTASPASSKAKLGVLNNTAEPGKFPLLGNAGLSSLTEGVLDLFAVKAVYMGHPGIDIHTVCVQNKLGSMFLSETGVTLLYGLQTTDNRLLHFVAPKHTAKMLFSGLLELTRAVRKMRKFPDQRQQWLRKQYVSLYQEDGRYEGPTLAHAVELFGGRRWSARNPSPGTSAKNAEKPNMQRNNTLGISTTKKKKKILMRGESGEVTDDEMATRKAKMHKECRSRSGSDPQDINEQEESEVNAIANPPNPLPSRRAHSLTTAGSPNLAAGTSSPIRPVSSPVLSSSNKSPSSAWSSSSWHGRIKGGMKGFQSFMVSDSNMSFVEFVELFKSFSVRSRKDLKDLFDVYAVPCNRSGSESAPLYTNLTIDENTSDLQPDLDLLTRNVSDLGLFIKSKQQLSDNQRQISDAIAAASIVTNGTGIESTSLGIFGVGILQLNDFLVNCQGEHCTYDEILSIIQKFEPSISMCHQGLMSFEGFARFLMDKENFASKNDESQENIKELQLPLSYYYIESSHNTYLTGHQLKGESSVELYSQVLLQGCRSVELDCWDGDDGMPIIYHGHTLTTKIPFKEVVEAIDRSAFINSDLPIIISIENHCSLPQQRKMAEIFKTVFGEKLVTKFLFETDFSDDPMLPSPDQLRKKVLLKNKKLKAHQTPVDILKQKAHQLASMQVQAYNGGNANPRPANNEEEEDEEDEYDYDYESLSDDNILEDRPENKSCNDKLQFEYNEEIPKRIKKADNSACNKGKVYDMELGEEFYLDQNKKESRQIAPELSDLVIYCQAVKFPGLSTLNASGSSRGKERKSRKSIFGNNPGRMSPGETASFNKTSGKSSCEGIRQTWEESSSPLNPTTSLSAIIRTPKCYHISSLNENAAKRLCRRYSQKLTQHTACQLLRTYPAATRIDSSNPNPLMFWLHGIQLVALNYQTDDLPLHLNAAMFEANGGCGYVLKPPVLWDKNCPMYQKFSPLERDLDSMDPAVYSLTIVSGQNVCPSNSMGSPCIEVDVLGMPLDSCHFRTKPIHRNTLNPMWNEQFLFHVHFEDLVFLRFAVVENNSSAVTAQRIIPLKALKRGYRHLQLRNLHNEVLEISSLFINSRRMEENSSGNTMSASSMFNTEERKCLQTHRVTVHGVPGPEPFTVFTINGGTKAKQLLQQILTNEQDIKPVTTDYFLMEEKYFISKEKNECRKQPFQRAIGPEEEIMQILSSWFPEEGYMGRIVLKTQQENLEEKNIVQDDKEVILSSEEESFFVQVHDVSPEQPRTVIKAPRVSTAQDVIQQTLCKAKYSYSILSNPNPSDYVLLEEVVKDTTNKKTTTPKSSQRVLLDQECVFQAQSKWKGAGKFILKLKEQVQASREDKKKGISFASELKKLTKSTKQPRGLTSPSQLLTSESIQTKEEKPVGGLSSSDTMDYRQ
measurement_protocol: In vitro PLC assay using fluorogenic substrate Compound 1 (HTS), PLCε
measurement_context: purified full-length PLCε, fluorogenic substrate Compound 1; read-out: IC50, inhibition of PLCε (hydrolysis of Compound 1)
property_measured: IC50 (nM)

INSERT INTO assay_data (molecule, units_symbol, value_observed) VALUES
  ('O=S(=O)([O-])[O-].[Zn+2]', 'nM', 1200),
  ('C[n+]1cc2c3c(ccc2c2ccc4cc5c(cc4c21)OCO5)OCO3', 'nM', 1900),
  ('COc1ccc2c(c[n+](C)c3c4cc5c(cc4ccc23)OCO5)c1OC', 'nM', 1300),
  ('CCCCCCOc1ccc2c(c1)Oc1cc(OP(=O)(O)O[C@H]3[C@H](O)[C@@H](O)[C@H](OP(=O)(O)O)[C@@H](O)[C@H]3O)ccc1C21OC(=O)c2ccccc21 (stereo partly shown)', 'nM', 3100);

---

tested_system: human PLCγ1 (Homo sapiens, UniProt P19174)
Construct: expressing the full-length polypeptides of human PLCε, PLCβ4, PLCδ1 and PLCγ1 as FLAG fusions
Sequence (P19174 1-1290): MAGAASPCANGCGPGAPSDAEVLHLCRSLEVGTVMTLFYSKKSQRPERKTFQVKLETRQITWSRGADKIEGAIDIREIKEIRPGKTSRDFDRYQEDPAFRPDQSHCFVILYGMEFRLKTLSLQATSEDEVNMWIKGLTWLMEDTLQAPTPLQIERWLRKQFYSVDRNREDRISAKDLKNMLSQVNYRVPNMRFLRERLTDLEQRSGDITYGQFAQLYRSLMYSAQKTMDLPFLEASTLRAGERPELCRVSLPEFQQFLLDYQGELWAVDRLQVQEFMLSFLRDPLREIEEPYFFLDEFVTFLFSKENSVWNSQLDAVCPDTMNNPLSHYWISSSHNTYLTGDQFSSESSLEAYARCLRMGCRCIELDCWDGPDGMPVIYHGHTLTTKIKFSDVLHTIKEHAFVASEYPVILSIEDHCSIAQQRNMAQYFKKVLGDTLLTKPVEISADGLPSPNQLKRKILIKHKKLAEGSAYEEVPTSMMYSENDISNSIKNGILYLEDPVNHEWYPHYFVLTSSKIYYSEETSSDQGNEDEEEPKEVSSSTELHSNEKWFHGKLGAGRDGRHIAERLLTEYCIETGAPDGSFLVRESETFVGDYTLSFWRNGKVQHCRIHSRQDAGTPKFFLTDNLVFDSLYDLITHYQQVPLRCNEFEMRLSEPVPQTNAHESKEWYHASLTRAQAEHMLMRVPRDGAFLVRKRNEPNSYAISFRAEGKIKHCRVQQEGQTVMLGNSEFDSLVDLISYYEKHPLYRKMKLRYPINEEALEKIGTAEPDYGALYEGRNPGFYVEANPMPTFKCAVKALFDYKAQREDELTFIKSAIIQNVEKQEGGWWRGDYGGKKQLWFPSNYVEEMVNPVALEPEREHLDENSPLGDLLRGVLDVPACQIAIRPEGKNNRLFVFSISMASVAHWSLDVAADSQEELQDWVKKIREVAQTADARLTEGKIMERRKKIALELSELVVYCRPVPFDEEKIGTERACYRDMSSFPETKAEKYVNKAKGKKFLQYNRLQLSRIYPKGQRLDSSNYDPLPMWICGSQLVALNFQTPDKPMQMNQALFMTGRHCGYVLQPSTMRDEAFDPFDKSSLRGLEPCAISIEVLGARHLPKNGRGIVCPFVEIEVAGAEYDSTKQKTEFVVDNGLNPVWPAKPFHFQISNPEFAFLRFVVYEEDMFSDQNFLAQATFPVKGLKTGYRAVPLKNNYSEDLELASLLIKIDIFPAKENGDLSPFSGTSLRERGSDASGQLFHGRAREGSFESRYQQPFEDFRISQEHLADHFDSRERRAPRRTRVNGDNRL
measurement_protocol: In vitro PLC assay using fluorogenic substrate Compound 1, PLCγ1
measurement_context: purified PLCγ1, fluorogenic substrate Compound 1; read-out: IC50, inhibition of PLCγ1 (hydrolysis of Compound 1)
The compounds listed here are annotated with their IC50.
property_measured: IC50 (nM)

INSERT INTO results (compound, value_observed) VALUES
  ('C[n+]1cc2c3c(ccc2c2ccc4cc5c(cc4c21)OCO5)OCO3', 1600),
  ('CCCCCCOc1ccc2c(c1)Oc1cc(OP(=O)(O)O[C@H]3[C@H](O)[C@@H](O)[C@H](OP(=O)(O)O)[C@@H](O)[C@H]3O)ccc1C21OC(=O)c2ccccc21 (stereo partly drawn)', 8700),
  ('COc1ccc2c(c[n+](C)c3c4cc5c(cc4ccc23)OCO5)c1OC', 1800);
